Listed next: entries and their corresponding Time spent in the clear compartment (seconds) (mean ± mean standard error).
# Tested on: mice (RJ:NMRI, males)
# Test Method Notes: Bright/dark box test (clear/dark transition test)
# Assay type: in vivo
# Condition Notes: 8 mg/Kg i.p., 30 minutes before the test; three-minute test
Param answer (str): number followed by unit.

Solved cases (3 shown):
COc1ccc(C(CN(C)C)C2(O)CCCCC2)cc1 (stereo not shown); 72.3 ± 7.3 s
N#Cc1ccccc1N1CCN(CCn2cnc3ccccc3c2=O)CC1; 103.0 ± 11.5 s
Fc1ccc([C@@H]2CCNC[C@H]2COc2ccc3c(c2)OCO3)cc1; 69.3 ± 5.9 s

What value of Time spent in the clear compartment (seconds) (mean ± mean standard error) has been reported for the following molecule? "COc1ccccc1N1CCN(CCn2cnc3ccccc3c2=O)CC1"
155.1 ± 14.4 s

Values were extracted from patent EP3130339A1.
